// reported GI50 per item
Test system: ACHN
Experiment: NCI tumour cell line growth inhibition, 48 h
Active and inactive are the calls of the source. No stated cut-off is given here; in the data, active = GI50 up to about 1.1 µM and inactive = higher.

Consider the following illustrative entries.
Cc1ccc(Nc2cn(COCc3ccccc3)c(=O)[nH]c2=O)cc1 : 37 µM (inactive)
C/C(=N\NC(=S)NC(CCC(=O)O)C(=O)O)c1cnccn1 (centres undefined) : > 100 µM (inactive)
COC(=O)c1cc2c(cc1CC1Cc3cc4c(cc3C1)CCC4)CCC2 : 43.4 µM (inactive)

Now take the following compound into account.
Req: API: value(readout= GI50, system= ACHN, query= Cn1c(-c2cccs2)cc(-c2cccs2)c1-c1ccco1 )
Resp: > 93.3 µM (inactive)

====

Tested on: SK-OV-3
Assay: NCI tumour cell line growth inhibition, 48 h
Active and inactive are the calls of the source. Rule as the data show it: active = GI50 up to about 1.1 µM and inactive = higher.
Please state which outcome applies, choosing from T = active, F = inactive

O=C(O)CSc1nnc2c3ccccc3c3ccccc3c2n1 : F
CCCCCCCCOC(=O)C12Oc3ccc(-c4ccc5c(c4O)C(=O)C4=C(O)CC(C)C(O)C4(C(=O)OCCCCCCCC)O5)c(O)c3C(=O)C1=C(O)CC(C)C2O (stereo not given) : F
N#CC1=C(N)OC(c2ccc([N+](=O)[O-])cc2)C1(C#N)C#N (stereo not given) : F
CC1=CC(=O)NP(=O)(Oc2ccc(Cl)cc2)N1 (stereo not given) : F
C[n+]1c(-c2ccc(/C=N/Nc3ccnc(N/N=C/c4ccc(-c5cn6ccsc6[n+]5C)cc4)n3)cc2)cn2ccsc21 : F

Req: Entry Cc1cc(OCc2nnc3sc(NC(=O)c4ccccc4)nn23)ccc1Cl : call = ?
Resp: F

Req: Recorded test outcome, item O=[N+]([O-])c1cccc(C2SCc3nc4ccccc4n32)c1 (stereo not given)
Resp: F

Req: Identify the outcome logged in this assay for the compound shown: CN(Cc1cnc2nc(N)nc(N)c2n1)c1ccc(C(=O)NC(CCC(=O)O)C(=O)O)c2ccccc12 (stereo not given)
Resp: T

Req: Given CNS(=O)(=O)NNS(=O)(=O)c1ccc(OC)cc1 , state the outcome it received in this test.
Resp: F

====

Tested on: NCI/ADR-RES
Assay: NCI tumour cell line growth inhibition, 48 h
The source made the active and inactive calls. Rule as the data show it: active = GI50 up to about 1.1 µM and inactive = higher.
Measured GI50 of individual entries

Cn1c(-c2cccs2)cc(-c2cccs2)c1-c1ccco1 : 40.7 µM (inactive)
CC1(c2sccc2Cl)CC(c2sccc2Cl)=C(C#N)C(=C(C#N)C#N)N1 (stereo not given) : 22.8 µM (inactive)
Cc1c2cc[n+](CCN3CCCCC3)cc2c(C)c2c1[nH]c1ccc(O)cc12 : 16.3 µM (inactive)
Cc1nn(C(=O)c2ccc(Cl)cc2)c2c1C(c1ccco1)SC(=N)N2 (stereo not given) : > 10 µM (inactive)

Lab note: next compound to report on.
Req: Consider the compound shown here: CC(=O)NNC1=NN(C(C)=O)C2(S1)C(=O)Nc1ccc(C)cc12 (stereo not given) What is its recorded GI50?
Resp: > 100 µM (inactive)

====

Tested on: SW-620
Experiment: NCI tumour cell line growth inhibition, 48 h
The source made the active and inactive calls. No stated cut-off is given here; in the data, active = GI50 up to about 1.1 µM and inactive = higher.
The following compounds are shown together with reported GI50 values.

Some solved cases for reference:
N#CC1CC(c2ccccc2)Nc2cc(Cl)ccc2N1 (stereo not given) : 4.5 µM (inactive)
COc1cc2ccc3c4ccccc4cnc3c2cc1OC : > 100 µM (inactive)
CCOC(=O)/C=C(/OCC)[C@@H]1C(C(=O)c2ccc(Cl)cc2)[C@H]1/C(=C\C(=O)OCC)OCC (stereo not given in full) : > 100 µM (inactive)
Cc1c(F)c(N)c2c(=O)cc(-c3ccc(NC(=O)C(N)CCCNC(=N)N)c(F)c3)oc2c1F (stereo not given) : > 61.5 µM (inactive)

Req: Endpoint output: GI50 of CSc1nc(NC2OC(COC(C)=O)C(OC(C)=O)C(OC(C)=O)C2OC(C)=O)c(/N=C\C=N/c2c(NC3OC(COC(C)=O)C(OC(C)=O)C(OC(C)=O)C3OC(C)=O)nc(SC)n(C)c2=O)c(=O)n1C (stereo not given) . Value?
Resp: > 100 µM (inactive)

====

Tested on: HOP-92
Test: NCI tumour cell line growth inhibition, 48 h
Active and inactive are the calls of the source. Cut-off read from the data, not from the text of the source: active = GI50 up to about 1.1 µM and inactive = higher.
Answer with one of the outcomes given here: t (active), f (inactive)

Cc1nn(-c2ccccc2)c2nc3c(c(C)nn3-c3ccccc3)c(-c3ccccc3Br)c12 : f

Req: What was the test verdict on O=C(O)CSc1nnc2c3ccccc3c3ccccc3c2n1 ?
Resp: f

Req: Per the records of this test, what outcome belongs to CCn1c(=O)c2c3ccc(OC(C)=O)cc3[nH]c2c2ccc(OC(C)=O)cc21 ?
Resp: f

Req: In this assay, the call recorded for Clc1ccc2c(c1)N(CCCN1CCCC13CCCCC3)c1ccccc1S2 was what?
Resp: f

Req: Could you check what this test reported for COC(=O)C12CCC(CC1=O)C2(C)C (configuration not stated) ?
Resp: f

Req: What classification did CC(C)=NOC(=O)CNC(=O)C(Cc1ccccc1)NC(=O)C(C)NC(=O)OC(C)(C)C (configuration not stated) end up with in this test?
Resp: f

====

Tested on: NCI/ADR-RES
Test: NCI tumour cell line growth inhibition, 48 h
The source made the active and inactive calls. Cut-off read from the data, not from the text of the source: active = GI50 up to about 1.1 µM and inactive = higher. Where a SMILES comes first, the peptide text is derived from it. [ ]: non-standard residue; d: D form. The star is where a group is joined. ξ: configuration not given here. ξPhe(4-NO2) = NC(Cc1ccc([N+](=O)[O-])cc1)C(=O)O; Boc = CC(C)(C)OC(=O)*; OBn = c1ccc(CO*)cc1
Choose one outcome from this list and give only that: active, inactive

Worked examples follow.
CC(C)(C)OC(=O)NC(Cc1ccc([N+](=O)[O-])cc1)C(=O)NCC(=O)OCc1ccccc1 (configuration not stated) (Boc-[ξPhe(4-NO2)]-Gly-OBn) : inactive
CC1CN=C(N(C(=O)Nc2ccc(Cl)cc2)c2cccc(Cl)c2)S1 (configuration not stated) : inactive
C=C1CC[C@@]2(OC1)OC1C[C@H]3[C@@H]4CC=C5C[C@@H](O)CC(OC6OCC(OC(=O)[C@@H](O)[C@@H](C)CC)C(OC(C)=O)C6OC6OC(C)C(O)C(O)C6O)[C@]5(C)[C@H]4CC[C@]3(C)C1[C@@H]2C (some centres not stated) : inactive
COc1ccc(-c2nc3cc(F)ccc3s2)cc1O : inactive
OCCSCCCSCCO : inactive

Req: # outcome recorded in this test, key = CCOc1ccc(N2C(=O)NC3(c4ccccc4)N(C)C(=O)N(C)C23c2ccccc2)cc1 (configuration not stated)
Resp: inactive

Req: Which outcome was assigned to OCC1OC(O[C@H]2CN3[C@H](O)[C@@H](O)[C@H](O)[C@H]3C2O)C(O)C(O)C1O (some centres not stated) in this test?
Resp: inactive

Req: Status in this test for CCO/C=N/NC(=O)CSc1nc2ccc(I)cc2c(=O)n1Cc1ccccc1 ?
Resp: inactive

Req: Record lookup: outcome of this test for COc1ccc2nc(N/N=C/C(C)=N/Nc3cc(C)c4cc(OC)ccc4n3)cc(C)c2c1 ?
Resp: inactive

Req: Write down the call the test reported for this compound. Item: CN(C)P(=O)(Oc1ccc(CC(NC(=O)OCc2ccccc2)C(=O)OCc2ccccc2)cc1)N(C)C (configuration not stated)
Resp: inactive

Req: GET /call?item= COC(=O)/C=C/c1ccc2c(c1)[C@H](C(=O)OC)[C@@H](c1ccc(O)cc1)O2 returns the recorded outcome of this test.
Resp: inactive

Req: Record lookup: outcome of this test for CCCCCCCCOC(=O)C12Oc3ccc(-c4ccc5c(c4O)C(=O)C4=C(O)CC(C)C(O)C4(C(=O)OCCCCCCCC)O5)c(O)c3C(=O)C1=C(O)CC(C)C2O (configuration not stated) ?
Resp: inactive

Req: # fetch the recorded call for COC1/C=C\OC2(C)Oc3c(C)c(O)c4c(O)c(c(/C=N\OCCCc5ccccc5)c(O)c4c3C2=O)NC(=O)/C(C)=C\C=C/C(C)C(O)C(C)C(O)C(C)C(OC(C)=O)C1C (configuration not stated) here
Resp: inactive

====

Test system: M14
Assay: NCI tumour cell line growth inhibition, 48 h
Active and inactive are the calls of the source. No stated cut-off is given here; in the data, active = GI50 up to about 1.1 µM and inactive = higher.
Each entry below lists one item and its recorded GI50 value.

Field: example entries. Status: answers known.
Cc1nn(-c2ccccc2)c2nc3c(c(C)nn3-c3ccccc3)c(-c3ccccc3Br)c12 : > 100 µM (inactive)
CC(C)(C)NCc1cc(Nc2ccnc3cc(Cl)ccc23)cc(-c2ccc(Cl)cc2)c1O : 2.18 µM (inactive)
C=C1Cc2cc(OC)c(OC)c(OC)c2-c2ccc(SC)c(=O)cc21 : < 0.01 µM (active)

Req: I have this compound here, CCOC(=O)/C(C(=S)Nc1ccccc1)=C(/N)N1CCCC1 , and I need its recorded GI50.
Resp: 72.6 µM (inactive)

Req: What measured GI50 goes with NS(=O)(=O)c1nnc(NC(=O)CCC(=O)O)s1 ?
Resp: > 100 µM (inactive)

Req: Can you share its GI50? I mean this compound: Cc1ccc(/N=N/C(=O)NNc2ccc(C)c([N+](=O)[O-])c2)cc1[N+](=O)[O-]
Resp: 40 µM (inactive)
